Target entity: Dipeptidyl peptidase 9 (DPP9), recombinant wild-type (human, UniProt Q86TI2 1-863)
Sequence (Q86TI2 other isoform, or with tags, fused parts or gaps limits assumed, form in doubt): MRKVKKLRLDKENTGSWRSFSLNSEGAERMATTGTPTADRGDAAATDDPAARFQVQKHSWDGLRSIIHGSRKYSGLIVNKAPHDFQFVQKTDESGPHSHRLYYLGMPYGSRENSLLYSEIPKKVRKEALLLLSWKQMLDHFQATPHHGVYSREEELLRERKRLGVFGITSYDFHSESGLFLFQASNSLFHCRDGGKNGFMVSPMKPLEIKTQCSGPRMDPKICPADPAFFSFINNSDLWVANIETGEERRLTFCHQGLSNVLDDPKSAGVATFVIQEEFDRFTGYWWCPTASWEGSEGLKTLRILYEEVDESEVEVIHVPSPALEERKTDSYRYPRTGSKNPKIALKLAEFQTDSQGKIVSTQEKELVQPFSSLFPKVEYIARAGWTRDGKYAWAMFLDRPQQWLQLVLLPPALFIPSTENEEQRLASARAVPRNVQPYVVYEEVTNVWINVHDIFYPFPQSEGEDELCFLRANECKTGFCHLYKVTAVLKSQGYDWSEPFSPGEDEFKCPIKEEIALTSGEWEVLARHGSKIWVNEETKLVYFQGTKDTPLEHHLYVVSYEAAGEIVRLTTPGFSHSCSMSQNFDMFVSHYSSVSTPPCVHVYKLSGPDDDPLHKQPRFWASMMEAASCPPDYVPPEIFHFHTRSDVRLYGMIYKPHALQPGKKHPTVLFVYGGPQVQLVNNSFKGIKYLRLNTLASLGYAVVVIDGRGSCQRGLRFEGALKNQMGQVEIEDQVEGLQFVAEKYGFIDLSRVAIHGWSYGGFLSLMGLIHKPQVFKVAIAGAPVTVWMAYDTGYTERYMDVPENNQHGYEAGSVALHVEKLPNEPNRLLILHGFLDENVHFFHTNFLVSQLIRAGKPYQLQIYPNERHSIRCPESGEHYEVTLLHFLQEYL
Assay summary: cell-based or functional assay
Reported values of % DPP9 activity (Mean), 14 µM peptide for individual entries
Report the figure in % without appending any unit label.

// known answers, use as guide
binder="FLFEGQRIA [… (SEQ ID NO: 32)]" quantity_measured="% DPP9 activity (Mean), 14 µM peptide" data_value=38.4
binder="SLRFLWEGQRIADNH [SLRFLWEGQRIADNH (SEQ ID NO: 18)]" quantity_measured="% DPP9 activity (Mean), 14 µM peptide" data_value=26.9
binder="SLRFLAEGQRIADNH [SLRFLAEGQRIADNH (SEQ ID NO: 21)]" quantity_measured="% DPP9 activity (Mean), 14 µM peptide" data_value=72.9
binder="RFLFEGQRIADNH [… (SEQ ID NO: 23)]" quantity_measured="% DPP9 activity (Mean), 14 µM peptide" data_value=79.8
binder="SLRFLFEGQRI [… (SEQ ID NO: 27)]" quantity_measured="% DPP9 activity (Mean), 14 µM peptide" data_value=29.1
binder="SLRFLVEGQRIADNH [SLRFLVEGQRIADNH (SEQ ID NO: 19)]" quantity_measured="% DPP9 activity (Mean), 14 µM peptide" data_value=28.6

[Q] Dear colleague, I am looking for the recorded % DPP9 activity (Mean), 14 µM peptide of the following binder: SLRFLFEGQR [… (SEQ ID NO: 28)]
[A] 18.4

[Q] Would you mind doing FLFEGQRI [… (SEQ ID NO: 33)] as well?
[A] 55.9

[Q] Would you mind doing SLRFLFDGQRIADNH [SLRFLFDGQRIADNH (SEQ ID NO: 17)] as well?
[A] 74.9

[Q] Would you mind doing SLRFLFEAQRIADNH [SLRFLFEAQRIADNH (SEQ ID NO: 22)] as well?
[A] 19.5

[Q] Would you mind doing LFEGQRIADNH [… (SEQ ID NO: 24)] as well?
[A] 42.7

[Q] Would you mind doing FLIEGQRI [FLIEGQRI (SEQ ID NO: 36)] as well?
[A] 49

[Q] Would you mind doing SLRFLFEGQRIADNR [SLRFLFEGQRIADNR (SEQ ID NO: 16)] as well?
[A] 56.4

[Q] Would you mind doing RFLFEGQRIAD [… (SEQ ID NO: 31)] as well?
[A] 66.4
